Target: Rap guanine nucleotide exchange factor 3 (Homo sapiens) (UniProt O95398)
Sequence (O95398 whole entry, looked up): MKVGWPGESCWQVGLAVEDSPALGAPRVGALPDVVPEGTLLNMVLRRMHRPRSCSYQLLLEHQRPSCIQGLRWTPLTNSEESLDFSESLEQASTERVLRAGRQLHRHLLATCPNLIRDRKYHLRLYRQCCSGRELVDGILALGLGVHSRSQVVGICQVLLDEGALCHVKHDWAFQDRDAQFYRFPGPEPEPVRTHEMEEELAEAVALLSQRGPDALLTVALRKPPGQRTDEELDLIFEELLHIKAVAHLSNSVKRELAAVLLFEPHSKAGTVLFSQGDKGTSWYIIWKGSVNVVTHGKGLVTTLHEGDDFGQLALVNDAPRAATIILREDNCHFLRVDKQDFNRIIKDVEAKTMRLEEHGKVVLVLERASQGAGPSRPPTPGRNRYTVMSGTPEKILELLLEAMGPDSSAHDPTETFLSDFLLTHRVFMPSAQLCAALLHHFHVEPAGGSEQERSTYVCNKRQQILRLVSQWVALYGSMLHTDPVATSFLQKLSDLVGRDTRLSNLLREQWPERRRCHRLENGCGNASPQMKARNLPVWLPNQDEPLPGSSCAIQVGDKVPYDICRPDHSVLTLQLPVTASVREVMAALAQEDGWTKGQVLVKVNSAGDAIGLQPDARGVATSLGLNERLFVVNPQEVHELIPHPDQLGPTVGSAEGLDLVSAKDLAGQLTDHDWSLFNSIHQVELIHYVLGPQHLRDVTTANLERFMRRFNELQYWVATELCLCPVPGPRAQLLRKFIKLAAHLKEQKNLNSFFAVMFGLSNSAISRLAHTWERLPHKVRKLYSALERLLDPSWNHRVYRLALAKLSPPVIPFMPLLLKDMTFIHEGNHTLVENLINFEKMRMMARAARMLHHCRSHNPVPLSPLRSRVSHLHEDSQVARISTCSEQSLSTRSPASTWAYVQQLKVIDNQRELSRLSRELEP
Assay: Confirmatory qHTS for antagonist of cAMP-regulated guanine nucleotide exchange factor 3 (EPAC1) (AID 1645880); also: nearly all actives have a fitted effect of over 55% in size
Conditions: EPAC1 Rap1B-BODIPY-GDP exchange, fluorescence
Excerpt: Assay Provider (PI): Xiaodong Cheng Ph.D. The University of Texas Medical Branch, […], TX MLPCN Grant: NS066510 In multi-cellular eukaryotic organisms, the effects of cAMP are transduced by two ubiquitously-expressed intracellular cAMP receptors, the classic protein kinase A/cAMP-dependent protein kinase (PKA/cAPK) and the more recently discovered exchange protein directly activated by cAMP/cAMP-regulated guanine nucleotide exchange factor (EPAC/cAMP-GEF). […]
Results filed as inconclusive are left out. Activity calls are given as the source filed them. Calls follow the shape of the dose curve; as a rule, active = well fitted inhibition curve with a large enough effect; inconclusive = small, poorly fitted or top-dose-only effect; inactive = no such curve, though single readings can be large or run the other way.
Respond only with the outcome that fits, drawn from active, inactive

{"molecule": "CC(=O)Nc1ccc(S(=O)(=O)Nc2nc(-c3ccc(C(C)(C)C)cc3)cs2)cc1", "class.label": "active"}
{"molecule": "CCC1(c2ccccc2)NC(=O)N(CC(=O)Nc2ccc(OC)nc2)C1=O (stereo not given)", "class.label": "inactive"}

How was `Nc1ccc2c3c(cccc13)C(=O)N(c1ccccc1)C2=O` classified in this test?
inactive

# outcome recorded in this test, key = `NC(=O)c1c(NC(=O)c2ccccc2)sc2c1CCN(Cc1ccccc1)C2`
inactive

State the result this test recorded for CCOC(=O)C1CCCN(C(=O)c2cc(-c3ccco3)nc3ccccc23)C1 (stereo not given) .
active

What classification did COc1cc2c(cc1OC)CN(C(C)C(=O)N1CCc3ccccc31)CC2 (stereo not given) end up with in this test?
inactive

Status in this test for `Cc1ccc2cccc(OC(=O)c3c(F)cccc3Cl)c2n1` ?
inactive

So what was the verdict on `COc1cc(/C=C(\C#N)c2nc3ccc(C)cc3[nH]2)cc([N+](=O)[O-])c1O` in this test?
active

Would you mind telling me which call this test gave `O=C(O)c1ccc(N/N=C/c2cccc(C(F)(F)F)c2)cc1` ?
inactive

Could you please tell me the result logged for Cc1cccc(NC(=O)C2CCCN(S(=O)(=O)c3ccc4c(c3)oc(=O)n4C)C2)c1 (stereo not given) in this assay?
inactive
